Source of measurements: paper PMC9688318

Molecular target: T1, PPR2.0 t24 (synthetic)
T1 chain: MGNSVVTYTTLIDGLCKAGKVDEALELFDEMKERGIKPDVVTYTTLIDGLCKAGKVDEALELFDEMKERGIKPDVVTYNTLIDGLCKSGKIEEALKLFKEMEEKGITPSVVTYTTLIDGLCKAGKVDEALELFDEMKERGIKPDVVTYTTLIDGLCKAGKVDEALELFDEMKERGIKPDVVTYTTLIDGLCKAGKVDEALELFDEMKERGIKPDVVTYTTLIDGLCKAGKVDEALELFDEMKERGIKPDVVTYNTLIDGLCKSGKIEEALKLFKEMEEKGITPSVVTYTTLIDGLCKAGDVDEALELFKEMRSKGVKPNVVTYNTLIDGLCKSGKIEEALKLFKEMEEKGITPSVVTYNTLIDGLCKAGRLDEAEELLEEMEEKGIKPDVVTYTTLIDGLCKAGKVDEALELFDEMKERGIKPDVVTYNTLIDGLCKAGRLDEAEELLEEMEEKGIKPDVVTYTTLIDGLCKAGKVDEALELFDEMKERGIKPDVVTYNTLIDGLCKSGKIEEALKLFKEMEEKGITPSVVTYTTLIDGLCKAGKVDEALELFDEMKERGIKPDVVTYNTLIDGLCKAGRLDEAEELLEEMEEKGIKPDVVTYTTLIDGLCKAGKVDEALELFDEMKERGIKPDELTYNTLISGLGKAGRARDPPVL
Assay: EMSA; 20 mM Tris-HCl pH 8.0, 150 mM NaCl, 0.5% NP-40, 1 mM DTT, 1 mM EDTA; 20 nM RNA
Conditions: tags: N-terminal SBP, C-terminal His6, kept; label: biotin
Property Name: Kd (nM)
Write the answer as a number in nM, unit excluded.

Ask: Which Kd is reported for this binder? GACAUGCGGCGGGGCACUGUGCGUGGACUG (ssRNA) [Probe_t24]
Reply: 11
